- Test system: NCI-H358 cells (Kras G12C mutation)
- MEASUREMENT PROTOCOL: Cell proliferation inhibition experiment, 3D model, CellTiter-Glo (NCI-H358)
- Type: cell-based, human
- MEASUREMENT CONTEXT: Homo sapiens, NCI-H358, 120 h, NCI-H358, 3D sphere plate, 5 days, 2% FBS
pIC50: −log10 of the molar value.
Below: a set of entries, each annotated with reported pIC50.
REPORTED METRIC: pIC50

1. C=CC(=O)N1CCN2c3nc(=O)n(-c4c(C)ccnc4C(C)C)c4cc(-c5c(C)ccc6[nH]ncc56)cc(c34)OC[C@H]2C1 [Compound Z18]
6.97
2. C=CC(=O)N1CCN2c3nc(=O)n(C4CC4)c4cc(-c5c(O)cccc5F)cc(c34)OCCC2C1 (stereo not drawn) [Compound Z28]
6.74
3. C=CC(=O)N1CCN2c3nc(=O)n(-c4c(C)ccnc4C(C)C)c4nc(-c5c(F)cc(F)cc5F)c(Cl)c(c34)OC[C@@H]2C1 [Compound Z56]
7.96
4. C=CC(=O)N1CCN2c3nc(=O)n(-c4c(C)ccnc4C(C)C)c4nc(-c5ccccc5F)c(F)c(c34)OC[C@@H]2C1 [Compound Z84]
7.89
5. C=CC(=O)N1CCN2c3nc(=O)n(-c4c(C)ccnc4C(C)C)c4nc(-c5c(O)cccc5F)cc(c34)OC[C@@H]2C1 (single isomer, unassigned) [Compound Z36-2]
7.17
6. C=CC(=O)N1CCN2c3nc(=O)n(-c4c(C)ccnc4C(C)C)c4nc(-c5c(O)cccc5F)c(F)c(c34)OC[C@@H]2C1 [Compound Z85]
8.52
7. C=CC(=O)N1CCN2c3nc(=O)n(-c4c(C)ccnc4C(C)C)c4nc(-c5c(O)cccc5F)c(C=C)c(c34)OC[C@H]2C1 [Compound Z74]
7.80
8. C=CC(=O)N1CCN2c3nc(=O)n(-c4c(C(C)C)ccnc4C)c4nc(-c5c(O)cccc5F)c(F)c(c34)OC[C@H]2C1 [Compound Z92]
8.52
9. C=CC(=O)N1CCN2c3nc(=O)n(-c4c(C)ccnc4C(C)C)c4nc(-c5c(F)cccc5F)c(Cl)c(c34)OC[C@H]2C1 [Compound Z80]
8.52
10. C=CC(=O)N1CCN2c3nc(=O)n(-c4c(C)cc(=O)n(C)c4C(C)C)c4nc(-c5ccccc5F)c(Cl)c(c34)OC[C@H]2C1 [Compound Z121]
8.52
11. C=CC(=O)N1CCN2c3nc(=O)n(-c4c(C)ccnc4C(C)C)c4nc(-c5cccc(Cl)c5F)c(Cl)c(c34)OC[C@@H]2C1 [Compound Z61]
9.00
12. C=CC(=O)N1CCN2c3nc(=O)n(-c4c(C)ncnc4C4CC4)c4nc(-c5cccc(F)c5F)c(Cl)c(c34)OC[C@H]2C1 [Compound Z106]
8.40
13. C=CC(=O)N1CCN2c3nc(=O)n(C4CC4)c4cc(-c5c(C)ccc6[nH]ncc56)c(Cl)c(c34)OC[C@@H]2C1 [Compound Z17]
7.20
14. C=CC(=O)N1CCN2c3nc(=O)n(-c4c(C)ccnc4C(C)C)c4nc(-c5ccccc5C(F)(F)F)c(Cl)c(c34)OC[C@@H]2C1 [Compound Z66]
8.52
15. C=CC(=O)N1CCN2c3nc(=O)n(-c4c(C)ccnc4C(C)C)c4nc(-c5cccnc5C)c(Cl)c(c34)OC[C@@H]2C1 [Compound Z78]
6.60
16. C=CC(=O)N1CCN2c3nc(=O)n(-c4c(C)ncnc4C4CC4)c4nc(-c5c(O)cccc5F)c(Cl)c(c34)OC[C@H]2C1 [Compound Z103]
8.15
17. C=CC(=O)N1CCN2c3nc(=O)n(-c4c(C)ccnc4C(C)C)c4nc(-c5c(O)cccc5F)c(Cl)c(c34)OC[C@H]2C1 [Compound Z23]
8.70
18. C=CC(C)N1CCN2c3nc(=O)n(-c4c(C)ccnc4C(C)C)c4nc(-c5cnccc5C)c(Cl)c(c34)OC[C@@H]2C1 (stereo partly drawn) [Compound Z81]
6.69
19. C=CC(=O)N1CCN2c3nc(=O)n(C4CC4)c4cc(-c5c(C)ccc6[nH]ncc56)c(Cl)c(c34)OC[C@@H]2C1 (single isomer, unassigned) [Compound Z17-2]
7.43
20. C=CC(=O)N1CCN2c3nc(=O)n(-c4c(C)ccnc4C(C)C)c4nc(-c5cc(O)ccc5F)c(Cl)c(c34)OC[C@H]2C1 [Compound Z118]
7.72
21. C=CC(=O)N1CCN2c3nc(=O)n(-c4c(OC)ncnc4C(C)C)c4nc(-c5c(O)cccc5F)c(F)c(c34)OC[C@H]2C1 (single isomer, unassigned) [Compound Z111-2]
8.52
22. C=CC(=O)N1CCN2c3nc(=O)n(-c4c(C)ccnc4C(C)C)c4cc(-c5c(C)ccc6[nH]ncc56)cc(c34)OCCC2C1 (stereo not drawn) [Compound Z22]
6.93
23. C=CC(=O)N1CCN2c3nc(=O)n(-c4c(C)ccnc4C(C)C)c4nc(-c5ccccc5F)c(Cl)c(c34)OC[C@@H]2C1 [Compound Z46]
8.30
24. C=CC(=O)N1CCN2c3nc(=O)n(-c4c(C)ccnc4C(C)C)c4nc(-c5cc(F)ccc5F)c(Cl)c(c34)OC[C@@H]2C1 [Compound Z60]
8.15
25. C=CC(=O)N1CCN2c3nc(=O)n(-c4c(C)ccnc4C(C)C)c4nc(-c5ccccc5Cl)c(Cl)c(c34)OC[C@H]2C1 [Compound Z90]
8.40
26. C=CC(=O)N1CCN2c3nc(=O)n(CC(C)C)c4cc(-c5c(O)cccc5F)c(Cl)c(c34)OC[C@@H]2C1 [Compound Z32]
6.51
27. C=CC(=O)N1CCN2c3nc(=O)n(-c4c(C)c(Cl)nn4C(C)C)c4nc(-c5ccccc5F)c(Cl)c(c34)OC[C@H]2C1 [Compound Z119]
7.92

Reference source: patent US20220251109A1
